system-under-test: KRAS G12C in MiaPaCa2 cells (Homo sapiens, UniProt P01116, G12C)
Construct: endogenous in cells; host or cells: MiaPaCa2
assay-summary: MiaPaCa2 Cell Activity Assay (Raf-1 RBD capture of active Ras, MSD)
Type: cell-based
condition-set: MIAPaCa-2 cells, 6 hours treatment; assay limit is 30.0 μM
result-type: IC50 (µM)

compound=C=CC(=O)N1CCN(c2nc(N3CC(N(C)C)C3)nc3c2C[C@@H](C)[C@H](c2c(C)c(Cl)cc4[nH]ncc24)C3)CC1 assay_result=0.068
compound="C=CC(=O)N1CCN(c2nc(OCCO)nc3c2CCC(c2c(C)ccc4[nH]ncc24)C3)CC1 (stereo not drawn)" assay_result=12
compound="C=CC(=O)N1CCN(c2nc(OC[C@H]3CCCN3C)nc3c2C[C@@H](C)[C@H](c2c(C)ccc4[nH]ncc24)C3)CC1 (relative stereo)" assay_result=0.236
compound="C=CC(=O)N1CCN(c2nc(N3CC(N(C)C)C3)nc3c2C[C@@H](C)[C@H](c2c(Cl)c(C)cc4[nH]ncc24)C3)CC1 [Example F7]" assay_result=0.108
compound=C=CC(=O)N1CCN(c2nc(N3CC(NC)C3)nc3c2C[C@@H](C)[C@H](c2c(C)c(Cl)cc4[nH]ncc24)C3)CC1 assay_result=0.178
compound="C=CC(=O)N1CCN(c2ncnc3c2C[C@@H](C)[C@H](c2c(C)c(Cl)cc4[nH]ncc24)C3)CC1 (relative stereo)" assay_result=0.155

* * *

system-under-test: GDP-loaded kRas (1-169) G12C, C51S, C80L, C118S (Homo sapiens, UniProt P01116, C118S/C51S/C80L/G12C)
Construct: GDP-loaded kRas (1-169) G12C, C51S, C80L, C118S
assay-summary: Mass Spectrometry Reactivity Assay (MSRA), covalent adduct with kRas G12C
Assay type: binding
condition-set: 0.5 h at room temperature; 5 μM KRas protein; typical final concentration of the compounds 10 μM
One threshold, 80%, splits the recorded % Modification (0.5 h) values: lower ones are Criterion met, equal or higher ones are Criterion not met.

compound="C=CC(=O)N1CCN(c2nc(OCCCOC)nc3c2CCC(c2c(C)ccc4[nH]ncc24)C3)CC1 (centres unmarked)" class="Criterion met"
compound="C=CC(=O)N1CCN(c2nc(N3CC(N(C)C)C3)nc3c2C[C@H](C)[C@@H](c2c(Cl)ccc4[nH]ncc24)C3)CC1 (single isomer, unassigned)" class="Criterion met"
compound=C=CC(=O)N1CCN(c2nc(N3CC(N(C)C)C3)nc3c2C[C@@H](C)[C@H](c2c(Cl)c(C)cc4[nH]ncc24)C3)C[C@H]1C class="Criterion not met"
compound="C=CC(=O)N1CCN(c2ncnc3c2C[C@@H](C)[C@H](c2c(C)cc(O)c4[nH]ncc24)C3)CC1 [Example E1]" class="Criterion met"

* * *

system-under-test: GDP-loaded kRas (1-169) G12C, C51S, C80L, C118S (Homo sapiens, UniProt P01116, C118S/C51S/C80L/G12C)
Construct: GDP-loaded kRas (1-169) G12C, C51S, C80L, C118S
assay-summary: Mass Spectrometry Reactivity Assay (MSRA), covalent adduct with kRas G12C
Assay type: binding
condition-set: 0.5 h at room temperature; 5 μM KRas protein; typical final concentration of the compounds 10 μM
Lab note: compare % Modification (0.5 h) against 20%. Equal or greater, write 1.0. Smaller, write 0.0.

compound="C=CC(=O)N1CCN(c2nc(N3CCN(C)CC3)nc3c2C[C@@H](C)[C@H](c2c(C)ccc4[nH]ncc24)C3)CC1 (relative stereo)" class=1.0
compound="C=CC(=O)N1CC2(C1)CN(c1ncnc3c1CCC(c1c(C)ccc4[nH]ncc14)C3)C2 (centres unmarked)" class=0.0
compound="C=CC(=O)N1CCN(c2nc(N3CC(N(C)C)C3)nc3c2C[C@@H](C)[C@H](c2c(C)ccc4[nH]ncc24)C3)CC1 (relative stereo) [Example F1]" class=1.0
compound="C=CC(=O)N1CCN(c2ncnc3c2CCC(c2c(C(F)(F)F)ccc4[nH]ncc24)C3)CC1 (centres unmarked)" class=0.0
compound="C=CC(=O)N1CCN(c2ncnc3c2CCC(c2c(C)ccc4[nH]ncc24)C3)[C@@H](C)C1 (some centres unmarked)" class=0.0
